experiment: Acute toxicity
stated_conditions: mouse, in vivo; Swiss mice, oral, observation 14 days
assay_metric: LD50 at 336 h

Field: example entries. Status: answers known.
| substance_smiles | assay_metric | recorded_measurement |
| --- | --- | --- |
| CN1CCN(CC(=O)N2c3ccsc3C(=O)Nc3cccnc32)CC1.Cl | LD50 at 336 h | > 2000 mg/kg |
| CN1CCN(CC(=O)N2c3cscc3C(=O)Nc3cccnc32)CC1 | LD50 at 336 h | > 1000 mg/kg |

Then there is this compound:
INPUT: // query LD50 at 336 h value for entry `Cc1scc2c1N(C(=O)CN1CCN(C)CC1)c1ncccc1NC2=O`
OUTPUT: > 500 mg/kg
